Target: Acetylcholinesterase (Bos taurus, UniProt P23795)
Sequence (P23795 whole entry): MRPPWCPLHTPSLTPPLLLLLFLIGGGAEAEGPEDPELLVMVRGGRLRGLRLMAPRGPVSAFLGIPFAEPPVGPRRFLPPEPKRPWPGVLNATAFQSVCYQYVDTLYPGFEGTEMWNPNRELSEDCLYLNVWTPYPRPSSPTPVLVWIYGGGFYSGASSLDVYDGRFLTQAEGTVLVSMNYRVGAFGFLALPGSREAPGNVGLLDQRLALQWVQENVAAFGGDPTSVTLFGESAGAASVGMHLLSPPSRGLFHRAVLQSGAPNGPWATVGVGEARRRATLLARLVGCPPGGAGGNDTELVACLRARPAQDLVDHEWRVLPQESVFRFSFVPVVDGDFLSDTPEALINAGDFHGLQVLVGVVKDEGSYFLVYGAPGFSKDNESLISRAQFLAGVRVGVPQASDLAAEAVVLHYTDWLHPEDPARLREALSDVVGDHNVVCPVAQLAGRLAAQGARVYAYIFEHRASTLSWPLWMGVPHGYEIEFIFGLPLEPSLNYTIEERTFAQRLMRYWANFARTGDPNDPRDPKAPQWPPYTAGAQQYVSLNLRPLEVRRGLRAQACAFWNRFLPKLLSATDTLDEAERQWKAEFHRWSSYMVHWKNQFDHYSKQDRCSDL
Test: Inhibition of bovine AChE after 120 mins by Ellman's method
pIC50: −log10 of the molar value.
Would you please tag the item Criterion met when its pIC50 is 4 or above, and Criterion not met when it is below?

Solved cases below.
{"COMPOUND": "CCOC(=O)CCC1CNc2cccc(OC(=O)N(C)CC)c21 (stereo not given)", "CATEGORY": "Criterion met"}
{"COMPOUND": "CCN(C)C(=O)Oc1cccc2c1NCC2CCC(=O)OC (stereo not given)", "CATEGORY": "Criterion met"}
{"COMPOUND": "COC(=O)CCC1CN(C)c2cc(OC(=O)N(C)c3ccc(OC)cc3)ccc21.Cl (stereo not given)", "CATEGORY": "Criterion met"}
{"COMPOUND": "CCN(C)C(=O)Oc1cccc2c1C(CCC(=O)OC)CN2.Cl (stereo not given)", "CATEGORY": "Criterion met"}

Next up:
Dear colleague, could you confirm whether CCN(C)C(=O)Oc1ccc2c(c1)N(C)CC2 has pIC50 at or above 4?
Criterion not met

----------
Experiment: Antioxidant activity assessed as scavenging of morpholino sydononimine based nitric oxide release by chemiluminescence assay
Assay type: functional
PROPERTY: IC50 (nM)
Field format: number, assumed nM, no unit text.

Example entries begin here.
{"MOLECULE": "O=C(O)CCC1CNc2cc(O)ccc21 (centres undefined)", "RECORDED_NUMBER": 1340}
{"MOLECULE": "O=c1c(O)c(-c2ccc(O)c(O)c2)oc2cc(O)cc(O)c12 [QUERCETIN]", "RECORDED_NUMBER": 610}

Can you share its IC50? I mean this molecule: COC(=O)CCC1CNc2cc(O)ccc21.Cl (centres undefined)
1380

How about this molecule: CCN(C)C(=O)Oc1ccc2c(c1)NCC2CCC(=O)OC.Cl (centres undefined)
2360

How about this molecule: CCN(C)C(=O)Oc1cccc2c1C(CCN)CN2 (centres undefined)
2130

How about this molecule: COC(=O)CCC1CNc2cccc(O)c21.Cl (centres undefined)
250

How about this molecule: CCN(C)C(=O)Oc1cccc2c1CCN2CCC(=O)OC
8490

How about this molecule: CCN(C)C(=O)Oc1ccc2c(c1)N(CCC(=O)OC)CC2
2180

How about this molecule: CN1CC(CCC(=O)O)c2ccc(O)cc21 (centres undefined)
3250

----------
Experiment: Cytotoxicity against rat H9c2 cells assessed as cell viability in absence of H2O2
Format: cell-based
Parameters: concentration or dose not given beside the values
Conditions: read-out: Activity
PROPERTY: viability (%)
Field format: number, assumed %, no unit text.

Example entries begin here.
{"MOLECULE": "COC(=O)CCC1CN(C)c2cc(OC(=O)N(C)c3ccc(OC)cc3)ccc21.Cl (configuration not stated)", "RECORDED_NUMBER": 106}
{"MOLECULE": "CCN(C)C(=O)Oc1ccc2c(c1)NCC2CCC(=O)OC.Cl (configuration not stated)", "RECORDED_NUMBER": 100}
{"MOLECULE": "CCN(C)C(=O)Oc1cccc2c1C(CCC(=O)OC)CN2.Cl (configuration not stated)", "RECORDED_NUMBER": 99.9}

Can you share its viability? I mean this molecule: CCCCN(C)C(=O)Oc1ccc2c(c1)NCC2CCC(=O)OC.Cl (configuration not stated)
87.8

How about this molecule: COC(=O)CCC1CN(C)c2cccc(OC(=O)N(C)c3ccc(OC)cc3)c21 (configuration not stated)
107

How about this molecule: COc1ccc(N(C)C(=O)Oc2cccc3c2C(CCC(=O)O)CN3)cc1 (configuration not stated)
95.5

How about this molecule: COc1ccc(N(C)C(=O)Oc2cccc3c2C(CCC(=O)O)CN3C)cc1 (configuration not stated)
101
